# Target system: T1, HLA-B*44:05 (human)
# T1 construct: also called peptide-receptive MHC class I molecule
# Experiment notes: UV peptide exchange, anti-b2m ELISA
Listed binders paired with reported peptide exchange yield

# example entries with known answers
[Q] Quick one: give measured peptide exchange yield for AEMLGSVVGNW
[A] 50 to 75%

[Q] Quick one: give measured peptide exchange yield for SEDLAVHL
[A] > 75%

[Q] Quick one: give measured peptide exchange yield for TEHFLKKFF
[A] 50 to 75%

[Q] Quick one: give measured peptide exchange yield for SEVPVDSHYY
[A] 50 to 75%

[Q] Quick one: give measured peptide exchange yield for SEVEGLAFV
[A] 50 to 75%

# next binder below
[Q] Quick one: give measured peptide exchange yield for SEFGAPRW
[A] 50 to 75%

Reference source for all entries: patent US20200087363A1
